Experiment: Compound cytotoxicity, XTT-based colorimetric assay
Assay type: cell-based
Details: human; uninfected MT2 cells, day 4, XTT assay
Protocol: Compound cytotoxicity and the corresponding CC50 values were determined using the same protocol as described in the antiviral assay except that uninfected cells were used. Cytotoxicity was assessed on day 4 in uninfected MT2 cells by using a XTT (2,3-bis[2-Methoxy-4-nitro-5-sulfophenyl]-2H-tetrazolium-5-carboxyanilide inner salt)-based colorimetric assay (Sigma-Aldrich, St Louis, Mo.).
value.kind: CC50 at 4 day

Provide one value: measured CC50 at 4 day of Cn1nc(NS(C)(=O)=O)c2c(Cl)ccc(-n3c([C@H](Cc4cc(F)cc(F)c4)NC(=O)Cn4ccc(C5CC5)n4)nc4nc(-c5ccccc5F)ccc4c3=O)c21 (atropisomer, axis not shown; (P))
> 500 nM

====

tested on: recombinant NL4-3 virus (Renilla luciferase) in MT-2 cells; test: HIV cell culture assay (antiviral activity, luciferase readout); format: cell-based; conditions: Renilla, NL43
value.kind: EC50 (nM)
Return type: number; implicit unit nM.

Solved cases (5 shown):
• COc1c(F)ccc(-c2ccc3c(=O)n(-c4ccc(Cl)c5c(NS(C)(=O)=O)nn(C)c45)c([C@H](Cc4cc(F)cc(F)c4)NC(=O)Cn4nc(C(F)F)c5c4C(F)(F)[C@@H]4C[C@H]54)nc3n2)c1F (atropisomer, axis not shown; (P)) [Example 26] = 0.062
• Cn1nc(NS(C)(=O)=O)c2c(Cl)ccc(-n3c([C@H](Cc4cc(F)cc(F)c4)NC(=O)Cn4nc(C(F)F)c5c4C(F)(F)[C@@H]4C[C@H]54)nc4nc(-c5cc(F)c(F)c(F)c5)ccc4c3=O)c21 (atropisomer, axis not shown; (P)) [Example 12] = 0.21
• Cn1nc(NS(C)(=O)=O)c2c(Cl)ccc(-n3c([C@H](Cc4cc(F)cc(F)c4)NC(=O)Cn4nc(C(F)F)c5c4C(F)(F)[C@@H]4C[C@H]54)nc4nc(-c5c(F)cc(F)cc5F)ccc4c3=O)c21 (atropisomer, axis not shown; (P)) [Example 28] = 0.032
• Cn1nc(NS(C)(=O)=O)c2c(Cl)ccc(-n3c([C@H](Cc4cc(F)cc(F)c4)NC(=O)Cn4nc(C(F)F)c5c4C(F)(F)[C@@H]4C[C@H]54)nc4nc(-c5cccc(S(C)(=O)=O)c5)ccc4c3=O)c21 (atropisomer, axis not shown; (P)) [Example 23] = 0.065
• Cn1nc(NS(C)(=O)=O)c2c(Cl)ccc(-n3c([C@H](Cc4cc(F)cc(F)c4)NC(=O)Cn4nc(C(F)F)c5c4C(F)(F)[C@@H]4C[C@H]54)nc4nc(-c5cccc(F)c5F)ccc4c3=O)c21 (atropisomer, axis not shown; (P)) [Example 4] = 0.092

Then this molecule:
Report value: EC50, system: recombinant NL4-3 virus (Renilla luciferase) in MT-2 cells, molecule: Cn1nc(NS(C)(=O)=O)c2c(Cl)ccc(-n3c([C@H](Cc4cc(F)cc(F)c4)NC(=O)Cn4nc(C(F)F)c5c4C(F)(F)[C@@H]4C[C@H]54)nc4nc(-c5ccc(F)c(C#N)c5)ccc4c3=O)c21 (atropisomer, axis not shown; (P)) [Example 30]
0.078

====

experiment: Compound cytotoxicity, XTT-based colorimetric assay; format: cell-based; settings: human; uninfected MT2 cells, day 4, XTT assay
value.kind: CC50 at 4 day

Solved cases (5 shown):
- Cn1nc(NS(C)(=O)=O)c2c(Cl)ccc(-n3c([C@H](Cc4cc(F)cc(F)c4)NC(=O)Cn4nc(C(F)F)c5c4C(F)(F)[C@@H]4C[C@H]54)nc4nc(-c5c(F)cccc5F)ccc4c3=O)c21 (atropisomer, axis not shown; (P)): > 100 nM
- Cn1nc(NS(C)(=O)=O)c2c(Cl)ccc(-n3c([C@H](Cc4cc(F)cc(F)c4)NC(=O)Cn4nc(C(F)F)c5c4C(F)(F)[C@@H]4C[C@H]54)nc4nc(-c5ccc(F)cc5S(C)(=O)=O)ccc4c3=O)c21 (atropisomer, axis not shown; (P)): > 500 nM
- Cn1nc(NS(C)(=O)=O)c2c(Cl)ccc(-n3c([C@H](Cc4cc(F)cc(F)c4)NC(=O)Cn4nc(C(F)(F)F)c5c4C(F)(F)[C@@H]4C[C@H]54)nc4nc(-c5ccccc5F)ccc4c3=O)c21 (atropisomer, axis not shown; (P)): > 100 nM
- Cn1nc(NS(C)(=O)=O)c2c(Cl)ccc(-n3c([C@H](Cc4cc(F)cc(F)c4)NC(=O)Cn4nc(C(F)F)c5c4C(F)(F)[C@@H]4C[C@H]54)nc4nc(-c5ccc(F)cc5F)ccc4c3=O)c21 (atropisomer, axis not shown; (P)): > 500 nM
- Cn1nc(NS(C)(=O)=O)c2c(Cl)ccc(-n3c([C@H](Cc4cc(F)cc(F)c4)NC(=O)Cn4nc(C(F)F)c5c4C(F)(F)[C@@H]4C[C@H]54)nc4cc(-c5ccc(F)cc5F)cnc4c3=O)c21 (atropisomer, axis not shown; (P)): > 500 nM

Provide one value: measured CC50 at 4 day of Cn1nc(NS(C)(=O)=O)c2c(Cl)ccc(-n3c([C@H](Cc4cc(F)cc(F)c4)NC(=O)Cn4nc(C(F)F)c5c4C(F)(F)[C@@H]4C[C@H]54)nc4cc(-c5ccccc5F)cnc4c3=O)c21 (atropisomer, axis not shown; (P))
> 500 nM

Provide one value: measured CC50 at 4 day of Cn1nc(NS(C)(=O)=O)c2c(Cl)ccc(-n3c([C@H](Cc4cc(F)cc(F)c4)NC(=O)Cn4nc(C(F)F)c5c4C(F)(F)[C@@H]4C[C@H]54)nc4nc(-c5ccc(F)c(Cl)c5)ccc4c3=O)c21 (atropisomer, axis not shown; (P))
> 100 nM

Provide one value: measured CC50 at 4 day of COc1nc2nc([C@H](Cc3cc(F)cc(F)c3)NC(=O)Cn3nc(C(F)F)c4c3C(F)(F)[C@@H]3C[C@H]43)n(-c3ccc(Cl)c4c(NS(C)(=O)=O)nn(C)c34)c(=O)c2cc1-c1ccccc1F (atropisomer, axis not shown; (P))
> 1000 nM

Reference source for all entries: patent US20220089598A1
